- EXPERIMENT DESCRIPTION: VP16 transactivation reporter inhibitors, counter-screen for LRH-1 inverse agonist project, cell-based, luminescence, high throughput (AID 651615)
- CONDITION SUMMARY: Gal4-VP16 luciferase reporter cells, at 3.6 µM
Calls of active or inactive are those of the source. Rule as the data show it: active = inhibition above about 33%; inactive = the rest.
A correct response names exactly one class from YES for active, NO for inactive

Name the outcome recorded for O=C(OCC12CC3CC(CC(C3)C1)C2)c1ccc(NCc2cc(O)ccc2O)cc1 in the assay.
YES

Name the outcome recorded for CCCCCc1ccc(OCCCC[n+]2cccc(C)c2)c(CCCCC)c1 in the assay.
YES

Name the outcome recorded for O=C(N/N=C(\c1ccccc1)c1cccnc1)c1cccc(F)c1 in the assay.
YES

Name the outcome recorded for Cc1cccc(NC(=O)c2ccc([N+](=O)[O-])o2)c1 in the assay.
NO

Name the outcome recorded for N#Cc1sc2nccc(Nc3ccccc3)c2c1N in the assay.
YES

Name the outcome recorded for O=C(NCc1cccnc1)c1ccc([N+](=O)[O-])o1 in the assay.
NO

Name the outcome recorded for COC(=O)c1c(NC(=O)c2ccco2)sc2c1CCN(C(C)=O)C2 in the assay.
NO

Name the outcome recorded for Cc1cc(Br)ccc1NC(=O)CN1C(=O)C2CC=CCC2C1=O (centres undefined) in the assay.
NO

Name the outcome recorded for Cc1ccc(N2CC(C(=O)Nc3nc4ccc(S(C)(=O)=O)cc4s3)CC2=O)cc1 (centres undefined) in the assay.
NO

Name the outcome recorded for Cc1ccnc2nc(C(=O)OCC(=O)Nc3ccc([N+](=O)[O-])cc3Br)nn12 in the assay.
NO

Name the outcome recorded for COc1cc(C)c(Br)cc1S(=O)(=O)NCc1ccncc1 in the assay.
YES

Name the outcome recorded for CCN(CC(=O)Nc1ccc(NC(C)=O)cc1)C(=O)C1(c2ccc(Cl)cc2)CCC1 in the assay.
NO

Name the outcome recorded for Cc1cc2oc(C(=O)NCc3ccncc3)c(C)c2cc1C in the assay.
NO

Name the outcome recorded for CCC(C)(C)c1ccc(Oc2ccc(N)cc2)cc1 in the assay.
YES

Name the outcome recorded for CCN(CC)c1ccc2nc3ccc(N)cc3[n+](-c3ccccc3)c2c1 in the assay.
YES

Name the outcome recorded for C=C1C(=O)C2=CC1CCC(=O)C1(C)CCC(OC(C)=O)C(C)(C)C1CC2O (centres undefined) in the assay.
YES

Name the outcome recorded for Cc1ccc(CSC(Nc2ccc(F)cc2)=C(C#N)C#N)cc1 in the assay.
YES

Name the outcome recorded for CCCn1c2c(c(=N)c3c1CCC3)CCCC2 in the assay.
YES

Name the outcome recorded for CS(=O)(=O)N1CCN(c2ccccc2NC(=O)c2ccc([N+](=O)[O-])o2)CC1 in the assay.
NO

Name the outcome recorded for COCC(C)n1c(-c2ccc3c(c2)NC(=O)CO3)csc1=Nc1ccc(OC(F)F)cc1 (centres undefined) in the assay.
YES

Name the outcome recorded for COC(=O)c1ccc(NC(=O)CSc2nc3ncccc3[nH]2)cc1 in the assay.
NO

Name the outcome recorded for Cc1ccc(NC(=O)CSc2nc3[nH]c(=O)cc(O)c3s2)c(Br)c1 in the assay.
NO

Name the outcome recorded for CCn1c2ccccc2c2cc(/C=N/n3c(C)nnc3C)ccc21 in the assay.
NO

Name the outcome recorded for Cc1cccc(C(=O)N[C@H](C(=O)Nc2ncc(C)s2)C(C)C)c1 in the assay.
NO

Name the outcome recorded for CCC(C)n1ncn(-c2ccc(N3CCN(c4ccc(O)cc4)CC3)cc2)c1=O (centres undefined) in the assay.
YES

Name the outcome recorded for Cc1cccc(CN2C(=O)CSc3ccc(C(=O)NC4CC4)cc32)c1 in the assay.
NO

Name the outcome recorded for CCCCc1c(O)nc(SCC(=O)Nc2ccc(OC)cc2)n(-c2ccc(C)c(C)c2)c1=O in the assay.
NO

Name the outcome recorded for CCN1C(=O)c2cccc3c(NC(=O)c4ccc(S(=O)(=O)N(C)C)cc4)ccc1c23 in the assay.
NO

Name the outcome recorded for Cc1cc2ncn(/N=C/c3ccc([N+](=O)[O-])o3)c2cc1C in the assay.
NO

Name the outcome recorded for Cn1nnnc1Sc1ncnc2scc(-c3ccc(-c4ccccc4)cc3)c12 in the assay.
NO

Name the outcome recorded for Cc1cc(C)n(-c2nc(Nc3ccccc3C(F)(F)F)nc(-n3nc(C)cc3C)n2)n1 in the assay.
NO

Name the outcome recorded for COc1cccc(N2CCN(c3ncnc4c3cnn4-c3ccc(C)cc3C)CC2)c1 in the assay.
YES

Name the outcome recorded for COc1ccc(NC(=O)CSC2=C(C#N)C(c3ccco3)C3=C(CCCC3=O)N2)c(OC)c1 (centres undefined) in the assay.
NO

Name the outcome recorded for Cc1nc2c(O)c3c(c(O)c2nc1C)C1C=CC3CC1 in the assay.
YES

Name the outcome recorded for CCCc1nnc(SCC(=O)Nc2ccc(OC)cc2)o1 in the assay.
NO

Name the outcome recorded for CCc1cc(=O)oc2cc3occ(-c4ccc(OC)c(F)c4)c3cc12 in the assay.
NO

Name the outcome recorded for CC(C(=O)N1CCCc2c1c(=O)oc1ccc(O)cc21)N1CCc2ccccc2C1 (centres undefined) in the assay.
NO

Name the outcome recorded for N#CC(=C1C=CC(=NO)C(Cl)=C1)c1ccccc1 in the assay.
NO

Name the outcome recorded for CCN(CC)CC(C)(C)C(=O)/C=C/c1ccc(/C=C/C(=O)C(C)(C)CN(CC)CC)cc1 in the assay.
YES

Name the outcome recorded for O=C(CCl)N(c1ccc(Cl)cc1)c1c[nH]c2ccccc12 in the assay.
NO

Name the outcome recorded for O=C(Nc1ccccc1)Nc1cc(OCC(F)(F)F)cc(OCC(F)(F)F)c1 in the assay.
YES

Name the outcome recorded for Cc1ccc(C(=O)C[n+]2cc(-c3ccc(C)cc3)n3c2CCCCC3)cc1 in the assay.
YES

Name the outcome recorded for CC(=O)Nc1ccc(-c2ccnc3c2CC(C(=O)NCc2ccco2)O3)cc1 (centres undefined) in the assay.
NO

Name the outcome recorded for Brc1ccc(C2=Nn3c(nnc3-c3n[nH]c4c3CCC4)SC2)cc1 in the assay.
NO

---

Field: inhibition. Provide a value for each of the molecules that follow.
- SYSTEM: Nuclear receptor coactivator 1 (Homo sapiens) (UniProt Q15788)
- Sequence (Q15788 whole entry, looked up): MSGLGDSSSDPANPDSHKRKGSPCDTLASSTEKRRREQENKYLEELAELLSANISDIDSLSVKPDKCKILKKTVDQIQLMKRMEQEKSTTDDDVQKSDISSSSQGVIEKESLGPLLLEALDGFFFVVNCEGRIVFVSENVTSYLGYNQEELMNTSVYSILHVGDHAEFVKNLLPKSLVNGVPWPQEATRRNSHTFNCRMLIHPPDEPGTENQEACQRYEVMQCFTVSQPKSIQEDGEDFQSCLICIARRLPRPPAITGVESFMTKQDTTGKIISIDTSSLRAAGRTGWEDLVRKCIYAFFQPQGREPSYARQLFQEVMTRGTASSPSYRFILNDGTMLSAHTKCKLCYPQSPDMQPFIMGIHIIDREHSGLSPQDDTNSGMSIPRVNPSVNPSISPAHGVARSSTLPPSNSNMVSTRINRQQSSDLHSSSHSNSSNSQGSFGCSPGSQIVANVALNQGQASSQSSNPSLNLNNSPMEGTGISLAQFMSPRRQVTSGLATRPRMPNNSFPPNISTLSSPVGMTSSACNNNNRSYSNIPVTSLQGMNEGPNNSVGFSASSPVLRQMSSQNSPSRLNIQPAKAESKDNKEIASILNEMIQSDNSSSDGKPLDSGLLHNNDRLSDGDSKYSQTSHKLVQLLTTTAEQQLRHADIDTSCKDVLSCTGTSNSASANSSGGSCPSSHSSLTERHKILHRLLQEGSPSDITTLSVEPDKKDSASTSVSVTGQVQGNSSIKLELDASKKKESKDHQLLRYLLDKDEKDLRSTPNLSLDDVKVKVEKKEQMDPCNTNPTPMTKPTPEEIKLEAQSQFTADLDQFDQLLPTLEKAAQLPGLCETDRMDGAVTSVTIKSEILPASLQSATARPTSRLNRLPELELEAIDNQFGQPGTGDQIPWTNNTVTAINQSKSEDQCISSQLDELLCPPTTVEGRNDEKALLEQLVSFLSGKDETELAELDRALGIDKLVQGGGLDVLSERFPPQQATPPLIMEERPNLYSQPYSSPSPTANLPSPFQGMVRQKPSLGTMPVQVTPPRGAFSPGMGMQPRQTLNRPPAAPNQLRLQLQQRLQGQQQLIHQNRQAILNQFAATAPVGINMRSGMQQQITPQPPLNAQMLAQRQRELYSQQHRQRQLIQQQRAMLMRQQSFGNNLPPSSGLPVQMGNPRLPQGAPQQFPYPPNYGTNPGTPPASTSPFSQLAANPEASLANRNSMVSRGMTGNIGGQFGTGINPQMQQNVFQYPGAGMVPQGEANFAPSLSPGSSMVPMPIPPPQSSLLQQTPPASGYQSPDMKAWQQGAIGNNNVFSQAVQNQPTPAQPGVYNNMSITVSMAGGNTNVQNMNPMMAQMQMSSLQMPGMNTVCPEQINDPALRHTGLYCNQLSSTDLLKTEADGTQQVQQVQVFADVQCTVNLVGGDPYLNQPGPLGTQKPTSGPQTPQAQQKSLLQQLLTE
- EXPERIMENT DESCRIPTION: SRC1 coactivator transcriptional activity inhibitors, confirmation, cell-based, luminescence, quadruplicate (AID 588820);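 also: 0% = DMSO wells and 100% = gossypol 36 µM treated wells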
- CONDITION SUMMARY: HEK293 GAL4-SRC1 luciferase reporter, at 3.6 µM, active compounds read high
Active and inactive are the calls of the source.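 How the source made its calls: active means mean inhibition above 46.68%, the untreated control wells mean plus 3 SD; inactive means the rest.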

State measured inhibition of the molecule CCOC(=O)c1c(NC(=O)C(C)N2CCN(C(=O)c3ccco3)CC2)sc2c1CCCC2 (configuration not stated) with Nuclear receptor coactivator 1 (Homo sapiens) (UniProt Q15788).
16.6% (inactive)

State measured inhibition of the molecule O=C1CCCCC1Sc1nnc(-c2ccc3c(c2)OCO3)o1 (configuration not stated) with Nuclear receptor coactivator 1 (Homo sapiens) (UniProt Q15788).
-129% (inactive)

State measured inhibition of the molecule CCN(CC)c1ccc(NC(=O)CSc2n[nH]c(-c3ccco3)n2)cc1 with Nuclear receptor coactivator 1 (Homo sapiens) (UniProt Q15788).
-8.8% (inactive)

State measured inhibition of the molecule Cc1ccc(/C=C2/CNC/C(=C/c3ccc(C)cc3)C2=O)cc1 with Nuclear receptor coactivator 1 (Homo sapiens) (UniProt Q15788).
-19.2% (inactive)

State measured inhibition of the molecule CCc1ccn2cc(-c3cc(-c4ccccc4)no3)nc2c1 with Nuclear receptor coactivator 1 (Homo sapiens) (UniProt Q15788).
-92.4% (inactive)

State measured inhibition of the molecule COCCn1c(C)cc(C(=O)COc2ccc(C)nc2[N+](=O)[O-])c1C with Nuclear receptor coactivator 1 (Homo sapiens) (UniProt Q15788).
12.1% (inactive)

State measured inhibition of the molecule Cc1ccc2[nH]cc(/C=C/c3cc[n+](C)cc3)c2c1 with Nuclear receptor coactivator 1 (Homo sapiens) (UniProt Q15788).
14.5% (inactive)

State measured inhibition of the molecule CN(CC(=O)NNC(=O)Cc1ccccc1F)S(=O)(=O)c1ccc(Cl)cc1 with Nuclear receptor coactivator 1 (Homo sapiens) (UniProt Q15788).
-12.3% (inactive)

State measured inhibition of the molecule COc1ccc(-c2csc(NC(=O)c3ccccc3NS(=O)(=O)c3ccc(F)c(F)c3)n2)cc1 with Nuclear receptor coactivator 1 (Homo sapiens) (UniProt Q15788).
55% (active)

State measured inhibition of the molecule Cc1cc(C(=O)CSc2nnc3ccccn23)c(C)n1-c1ccccc1 with Nuclear receptor coactivator 1 (Homo sapiens) (UniProt Q15788).
-49.2% (inactive)

State measured inhibition of the molecule COc1ccc(N2CCN(C(=O)c3ccc(CS(=O)c4cccc(C)c4)o3)CC2)cc1 (configuration not stated) with Nuclear receptor coactivator 1 (Homo sapiens) (UniProt Q15788).
-16.2% (inactive)

State measured inhibition of the molecule N=c1c2c(-c3ccccc3)c(-c3ccccc3)n(Cc3ccccc3)c2ncn1CCCO with Nuclear receptor coactivator 1 (Homo sapiens) (UniProt Q15788).
42.6% (inactive)

State measured inhibition of the molecule CCN(c1ccc(OC)cc1)c1ncnc2nc[nH]c12 with Nuclear receptor coactivator 1 (Homo sapiens) (UniProt Q15788).
67.2% (active)

State measured inhibition of the molecule Cc1nc2ccc(NC(=O)c3ccc(Cl)c(S(=O)(=O)N(C)c4ccccc4)c3)cc2s1 with Nuclear receptor coactivator 1 (Homo sapiens) (UniProt Q15788).
3.35% (inactive)

State measured inhibition of the molecule CCc1ccc(N(CC)c2ncnc3nc[nH]c23)cc1 with Nuclear receptor coactivator 1 (Homo sapiens) (UniProt Q15788).
56.7% (active)

State measured inhibition of the molecule N#Cc1c(N)n(C2OC(CO)C(O)C2O)c2ncnc(N)c12 (configuration not stated) with Nuclear receptor coactivator 1 (Homo sapiens) (UniProt Q15788).
79.9% (active)

State measured inhibition of the molecule COc1ccc2cc3c(N)nn(C(=O)c4ccc(Cl)c([N+](=O)[O-])c4)c3nc2c1 with Nuclear receptor coactivator 1 (Homo sapiens) (UniProt Q15788).
56.7% (active)

State measured inhibition of the molecule CCCCCCCC/C=C\CCCCCCCC(=O)NCCc1ccc(O)c(O)c1 with Nuclear receptor coactivator 1 (Homo sapiens) (UniProt Q15788).
-70% (inactive)

State measured inhibition of the molecule COc1ccc(-n2cc(-c3ccccc3)[n+]3c2CCCCC3)cc1 with Nuclear receptor coactivator 1 (Homo sapiens) (UniProt Q15788).
16.8% (inactive)

State measured inhibition of the molecule CCc1nnc(SCc2ccc(C(=O)OC)o2)n1N with Nuclear receptor coactivator 1 (Homo sapiens) (UniProt Q15788).
-6.33% (inactive)

State measured inhibition of the molecule O=C(Nc1ccc(S(=O)(=O)N2CCCC2)cc1)c1ccc(CN2CCc3ccccc3C2)cc1 with Nuclear receptor coactivator 1 (Homo sapiens) (UniProt Q15788).
8.79% (inactive)

State measured inhibition of the molecule O=c1[nH]c(=O)n(C2C[C@H](O)[C@@H](CO)O2)cc1C(F)(F)F (some centres not stated) with Nuclear receptor coactivator 1 (Homo sapiens) (UniProt Q15788).
54.4% (active)
